Entries annotated with measured apparent KD of MS2 coat protein
Test system: MS2 coat protein
assay.explanation: apparent KD of MS2 coat protein; designed switch direction (-1 OFF switch, 1 ON switch): -1; higher = weaker reporter binding
experimental.setup: Eterna round: R95; input ligand: microRNA oligo, concentration not stated
Give the number; nM is assumed, so skip it.

GET /values?readout=apparent KD of MS2 coat protein&item= AAGAAACAUGAGGAUCACCCAUGUCAGGAUAUCUCGAAAAGCAUAGAAAUAUGCGAAGAGAGAAGGGACUGCCC [ChP Ext 10-04-2015 #2] (puzzle: Exclusion 1)
19.3

# input sequence: UUUAAUUUUUUUUUUUUACAAGCUUUUUGCUCGUCUUAUACAUGAGGAUCACCCAUGUAAAUGGAAGGUAAAUUAUC [JMF 67] (puzzle: Sensor v3, turn-off variant 2) ; wanted: its apparent KD of MS2 coat protein
17.3

Value lookup for apparent KD of MS2 coat protein; key = CGUGACUCAGGAUAUCUAUAGUGUCACAUGAGGAUCACCCAUGUCCAGCGAAAGCUGGAGGGAGAAGGGAGUCACG [Fiskers Ex 5 - 43] (puzzle: Exclusion 5)
90.5

Form field: reported apparent KD of MS2 coat protein of GAGGAACAUGAGGAUCACCCAUGUGAGGAUAUGCAUAGUGAGGUAGUAGACGUUGAAUGCAGAAGGUACACUGA [JR_Exclu1_Sub078] (puzzle: Exclusion 1)
35.7

Turning now to a further record.
// query apparent KD of MS2 coat protein value for entry UCCCUGUCAGGAUAUACAUGAGGAUCACCCAUGUCUCUCCGACACGGGAAAAGGAACUGUAGAAGGGACAGGAU [Xezaeseris] (puzzle: Exclusion 3)
12.3

====

Tested on: MS2 coat protein
assay.explanation: apparent KD of MS2 coat protein; designed switch direction (-1 OFF switch, 1 ON switch): -1; higher = weaker reporter binding
experimental.setup: input ligand: FMN 200 uM
Recorded apparent KD of MS2 coat protein, one value per entry.
Quick reminder: number only, in nM, skip the unit.

Hello, I am looking for reported apparent KD of MS2 coat protein with MS2 coat protein for CUUAAAAGGUAGGAUAUGCUAGACGAAAGUCUAGCAGAAGGACCUACAUGAGGAUCACCCAUGUGUCCAAUAAG [Mat - Exclusion 6 - Eli Mod - D23] (Eterna round: R97, puzzle: Exclusion 6) . Could you help?
50.6

Fill in the recorded apparent KD of MS2 coat protein for this sequence, with MS2 coat protein as test system: CGGCAAAGGUAGGAUAUGCUAGACGAUAGUCUAGCAGAAGGACCUACAUGAGGAUCACCCAUGUGUCCAAGCCG [Mat - Exclusion 6 - Eli Mod - D19] (Eterna round: R97, puzzle: Exclusion 6)
27.9

Request - read-out apparent KD of MS2 coat protein | tested on MS2 coat protein | sequence GUGAGUAGUCAGGAUAUGCUGUACAAAAGUACAGCAGAAGGGACUACAUGAGGAUCACCCAUGUUUACUUCAUG [Omei Ex6 B5] (Eterna round: R97, puzzle: Exclusion 6)
522

Lookup: apparent KD of MS2 coat protein / MS2 coat protein / AUCUCUCGUGUUAGGAUAUCCAGUUAGUUCGUGCGGGAGAAGGAACAUGAGGAUCACCCAUGUAAACAAAUCGC [BmEX4 B.21] (Eterna round: R97, puzzle: Brourd's mod of Exclusion 4)
52.1

Others:
Short answer please: apparent KD of MS2 coat protein, MS2 coat protein, entry UUAUUAUAUGAAGGAUAUACUUAACAUGAGGAUCACCCAUGUGGUGUUGUGAGUGAGUGAGUUUAGUAGAAGGUCAAUGAUUUU [JMF's solution 72] (Eterna round: R96, puzzle: Exclusion NG 2)
1490
